# assay_protocol: CCTE_Padilla_ZF_Score.Edema: CCTE's 144 Hour Post-fertilization zebrafish Assay Score for Edema Malformation, Padilla Lab (AID 2284406)
Calls of active or inactive are those of the source. The calls were made as follows: active = hit-call score of the fitted dose curve at least 0.9, where 1 is the maximum; inactive = score below 0.9.
measure_name: AC50

{"compound": "FC(F)(F)C(F)(F)C(F)(F)C(F)(F)C(F)(F)C(F)(F)C(F)(F)C(F)(F)F", "measure_name": "AC50", "result": "inactive"}
{"compound": "CC(C)(C)C(=O)CC(=O)C(F)(F)C(F)(F)C(F)(F)F", "measure_name": "AC50", "result": "27.5 µM (active)"}
{"compound": "C=CC(F)(F)C(F)(F)C(F)(F)C(F)(F)C(F)(F)C(F)(F)C(F)(F)C(F)(F)F", "measure_name": "AC50", "result": "inactive"}
{"compound": "OCC(F)(F)C(F)(F)C(F)(F)F", "measure_name": "AC50", "result": "inactive"}
{"compound": "FC(F)(F)C(F)(F)C(F)(F)C(F)(F)C(F)(F)C(F)(F)CC1CO1 (stereo not given)", "measure_name": "AC50", "result": "inactive"}
{"compound": "FC(F)(F)C(F)(F)C(F)(F)C(F)(F)C(F)(F)C(F)(F)C(F)(F)I", "measure_name": "AC50", "result": "10.2 µM (active)"}
{"compound": "O=C(CC(=O)C(F)(F)C(F)(F)F)C(F)(F)F", "measure_name": "AC50", "result": "inactive"}
{"compound": "O=C(O)C(F)(OC(F)(F)C(F)(OC(F)(F)C(F)(OC(F)(F)C(F)(F)C(F)(F)F)C(F)(F)F)C(F)(F)F)C(F)(F)F (stereo not given)", "measure_name": "AC50", "result": "inactive"}
{"compound": "FC(F)(Br)C(F)(F)C(F)(F)C(F)(F)C(F)(F)C(F)(F)Br", "measure_name": "AC50", "result": "inactive"}
{"compound": "FC(F)(F)C(F)(F)C(F)(F)C(F)(F)CCI", "measure_name": "AC50", "result": "inactive"}
{"compound": "FC(F)(F)C(F)(F)C(F)(F)N(C(F)(F)C(F)(F)C(F)(F)F)C(F)(F)C(F)(F)C(F)(F)F", "measure_name": "AC50", "result": "inactive"}
{"compound": "C=CC(=O)OCC(F)(F)C(F)(F)C(F)(F)C(F)(F)C(F)(F)C(F)(F)C(F)(F)F", "measure_name": "AC50", "result": "inactive"}
{"compound": "OCC(F)(F)C(F)(F)C(F)(F)C(F)(F)C(F)(F)C(F)F", "measure_name": "AC50", "result": "inactive"}
{"compound": "FC(F)(F)C(F)(F)C(F)(F)C(F)(F)C(F)(F)CCI", "measure_name": "AC50", "result": "30.4 µM (active)"}
{"compound": "O=C(O)C(F)(OC(F)(F)C(F)(OC(F)(F)C(F)(F)C(F)(F)F)C(F)(F)F)C(F)(F)F (stereo not given)", "measure_name": "AC50", "result": "inactive"}

###

# Read-out: Vascular endothelial growth factor receptor 2 (Homo sapiens) (UniProt P35968)
# assay_protocol: BSK_4H_VEGFRII: BioMAP Diversity Plus: 4H Assay for Vascular endothelial growth factor receptor 2 (VEGFR2) Biomarker Activity (AID 2283031)
# particulars: primary human endothelial cells (HUVEC); actives raise or lower the signal
Calls of active or inactive are those of the source. The calls were made as follows: active = hit-call score of the fitted dose curve at least 0.9, where 1 is the maximum; inactive = score below 0.9.
Outcomes: Yes = active, No = inactive

{"entry_smiles": "CCCCCCCCC(F)(F)C(F)(F)C(F)(F)C(F)(F)C(F)(F)C(F)(F)F", "category_label": "No"}
{"entry_smiles": "N=C(N)C(F)(F)C(F)(F)C(F)(F)C(F)(F)C(F)(F)C(F)(F)C(F)(F)F", "category_label": "No"}
{"entry_smiles": "FC(F)(F)C(F)(F)C(F)(F)CI", "category_label": "No"}
{"entry_smiles": "CCc1ccc(C(c2ccc(CC)cc2)C(Cl)Cl)cc1", "category_label": "Yes"}
{"entry_smiles": "CCCCNc1ccccc1", "category_label": "No"}
{"entry_smiles": "C=CC(F)(F)C(F)(F)C(F)(F)C(F)(F)C(F)(F)C(F)(F)C(F)(F)C(F)(F)C=C", "category_label": "No"}
{"entry_smiles": "CCCCOCCOCCOC(=O)CCCCC(=O)OCCOCCOCCCC", "category_label": "No"}
